Every entry's value here was drawn from PubChem BioAssay AID588852.

assay-system: Muscarinic acetylcholine receptor M1 (Homo sapiens)
method-summary: CHRM1 blockers of acetylcholine calcium response – CHO-K1 cells, Fluo-8 calcium fluorescence, 1536-well, primary screen (AID 588852);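 further: peak over basal fluorescence ratio during 140 s after agonist addition; 0% = ACh EC80 plus DMSO and 100% = DMSO alone without agonist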
condition-parameters: CHO-K1 hM1, Fluo-8 calcium fluorescence, ACh EC80 antagonist; at 3 µM
Out of some 360,000 compounds screened, about 4,600 (1.3%) were called active.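 How the source made its calls: active means percent inhibition above its own plate's cutoff, namely the mean of that plate's compound wells plus 3 SD; inactive means the rest.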 What follows is part of a selection rich in actives, with near analogues and random picks from the rest.
Returns: one label drawn from 1 (yes) (active), 0 (no) (inactive)

Query: Could you kindly confirm the outcome this assay logged for CCCc1nc2ccccc2c(C(=O)OCc2nnc(-c3cc(OC)c(OC)c(OC)c3)o2)c1CC ?
Reply: 1 (yes)

New cases:
Query: Short answer needed: outcome of this test for O=C(c1ccco1)N1CCN(C(=O)C2c3ccccc3Oc3ccccc32)CC1 ?
Reply: 0 (no)

Query: How was COCC(=O)N1CCCC(C(=O)c2ccc(C(F)(F)F)cc2)C1 (stereo not given) classified in this test?
Reply: 0 (no)

Query: Would you mind telling me which call this test gave CCNC(=S)N(CCN(CC)CC)Cc1cc2cc3c(cc2[nH]c1=O)OCO3 ?
Reply: 0 (no)

Query: For this compound, state the assay outcome: O=C(c1ccco1)N1CCN(CCOc2ccccc2)CC1
Reply: 0 (no)

Query: Field: outcome | Entry: CN(Cc1ccccc1)C(=O)CCC1CCN(C(=O)c2ccco2)CC1
Reply: 1 (yes)

----------
assay-system: Muscarinic acetylcholine receptor M1 (Homo sapiens) (UniProt P11229)
Sequence (P11229 whole entry, looked up): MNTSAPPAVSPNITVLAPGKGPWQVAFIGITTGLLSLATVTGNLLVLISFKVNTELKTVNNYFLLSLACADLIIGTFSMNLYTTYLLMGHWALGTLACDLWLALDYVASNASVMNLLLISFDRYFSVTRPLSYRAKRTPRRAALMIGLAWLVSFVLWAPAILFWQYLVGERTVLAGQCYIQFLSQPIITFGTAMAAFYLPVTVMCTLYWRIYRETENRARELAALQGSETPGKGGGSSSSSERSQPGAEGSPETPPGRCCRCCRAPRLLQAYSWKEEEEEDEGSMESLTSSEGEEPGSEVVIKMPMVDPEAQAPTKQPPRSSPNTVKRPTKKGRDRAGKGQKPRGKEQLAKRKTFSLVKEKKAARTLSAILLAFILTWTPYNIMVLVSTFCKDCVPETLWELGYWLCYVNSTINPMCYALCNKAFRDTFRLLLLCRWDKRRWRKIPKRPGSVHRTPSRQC
method-summary: CHRM1 blockers of acetylcholine calcium response – CHO-K1 cells, Fluo-8 calcium fluorescence, 1536-well, primary screen (AID 588852);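 further: peak over basal fluorescence ratio during 140 s after agonist addition; 0% = ACh EC80 plus DMSO and 100% = DMSO alone without agonist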
condition-parameters: CHO-K1 hM1, Fluo-8 calcium fluorescence, ACh EC80 antagonist; at 3 µM
Among all 360,000 compounds or so, about 4,600 (1.3%) were called active.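 How the source made its calls: active means percent inhibition above its own plate's cutoff, namely the mean of that plate's compound wells plus 3 SD; inactive means the rest.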 For the sample, actives were picked, then their nearest neighbours and some compounds at random.
Result category, one only: active, inactive

// below: answered molecules
Query: Outcome logged for O=C(NCC1CCCO1)c1ccccc1-c1nc(-c2ccccc2Cl)no1 (stereo unspecified) in this assay:
Reply: inactive

Query: Answer briefly: the call reported for COc1ccc(NC(=O)NC2CC3CCCC(C2)N3Cc2ccccc2)cc1 (stereo unspecified) in this assay.
Reply: inactive

Query: Give the logged outcome of this assay for the following molecule: CN(CC(=O)Nc1ccc(F)cc1)CC(=O)Nc1ccc(Cl)c(S(=O)(=O)N2CCOCC2)c1
Reply: inactive

Query: Fill in: this test's call for C=C(C)c1cccc(C(C)(C)NC(=O)N2CCN(c3ncccn3)CC2)c1 is ___
Reply: inactive

Query: Can you look up the reported call for C[N+]1(CC(O)COc2ccccc2)CCN(C(=O)c2ccc([N+](=O)[O-])cc2)CC1 (stereo unspecified) for me?
Reply: inactive

***
Query: Recorded call for CC(C(=O)Nc1ccc(S(=O)(=O)N2CCCC2)cc1)N(C)Cc1ccc(F)cc1 (stereo unspecified) ?
Reply: active

Query: What classification did CC(=O)Nc1ccc(NC(=O)CSc2nnnn2C2CCCCC2)cc1 end up with in this test?
Reply: inactive

Query: recorded result category for COc1ccccc1CC(=O)Nc1ccc(S(=O)(=O)N2CCCC2)cc1 in this test
Reply: inactive

Query: Record lookup: outcome of this test for CCN(CC(=O)Nc1ccc(S(=O)(=O)N2CCCC2)cc1)CC(=O)Nc1cccc(OC)c1 ?
Reply: inactive

Query: Per the records of this test, what outcome belongs to CC1=C(C(=O)N2CCOCC2)CC(CC(=O)NCCCN(C)C)C(=O)N1Cc1ccc(C(C)(C)C)cc1 (stereo unspecified) ?
Reply: inactive

Query: Called result for O=C(Nc1ccc(F)cc1)C1CCN(C(=O)c2ccc([N+](=O)[O-])cc2)CC1
Reply: inactive

Query: Called result for COc1ccccc1C1SCCN1C(=O)c1ccc([N+](=O)[O-])cc1 (stereo unspecified)
Reply: active

Query: What is the recorded call for this molecule in the test? C=C(C)c1cccc(C(C)(C)NC(=O)NC2CCCC2)c1
Reply: inactive

Query: Dear all, I need the recorded test outcome for COc1ccc(CN2C3CCCC2CC(NC(=O)c2cccc(F)c2)C3)cc1 (stereo unspecified) , thank you.
Reply: active

Query: Can you look up the reported call for COc1ccc(CCNC(=O)CCNS(=O)(=O)c2cc(Br)cnc2N)cc1OC for me?
Reply: inactive

----------
assay-system: Muscarinic acetylcholine receptor M1 (Homo sapiens)
method-summary: CHRM1 blockers of acetylcholine calcium response – CHO-K1 cells, Fluo-8 calcium fluorescence, 1536-well, primary screen (AID 588852);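 further: peak over basal fluorescence ratio during 140 s after agonist addition; 0% = ACh EC80 plus DMSO and 100% = DMSO alone without agonist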
condition-parameters: CHO-K1 hM1, Fluo-8 calcium fluorescence, ACh EC80 antagonist; at 3 µM; active compounds read high
Screen size: about 360,000 compounds; about 4,600 (1.3%) were called active. The list comes from a sample in which actives are over-represented; it also holds close analogues and randomly drawn compounds.
Entries and their inhibition values follow.
Express the result in % but write the number alone.

Lab book: inhibition of O=C(COc1ccccc1)Nc1nonc1NC(=O)COc1ccccc1 noted as 3.1

// inhibition lookup, compound = COc1ccc(C(=O)Oc2ccc(-c3nnco3)cc2)cc1S(=O)(=O)N1CCOCC1 , result: 0.6

// field: inhibition; key: CCCn1c(C2CCCN2c2nc(-c3ccc(C)cc3)cs2)nc2cc(Cl)c(N3CCCCC3)cc21 (stereo unspecified) ; value = -10.7

Entry CN(C)C(=O)N1CCNCC1 , inhibition reported as -11.2

Short answer for Cc1cc2nc(-c3ccco3)c(Cc3cccc(F)c3)n2c(C)c1Br : inhibition was -9.48

Others:
The measured inhibition associated with CN(C)C(=O)c1cccc(-c2cnc3c(NC=O)cc(-c4ccc(F)cc4)cn23)c1 reads -4.58

Noted for CC(=O)N1CCCc2cc(S(=O)(=O)CCC(=O)N3CCN(c4ccccc4)CC3)ccc21 : its inhibition reads -7.27

Record Cn1cccc1C(=O)NNC(=O)COc1ccc(Br)cc1 , field inhibition: -13

Documented inhibition of COc1ccccc1N(C)S(=O)(=O)c1ccc(C(=O)N2CCC(C(N)=O)CC2)cc1 : -7.95

Field inhibition (entry COc1ccccc1NC(=S)NC(=O)C(C)C ) reads -7.13

Query CCN(CC)CCn1c2c(c(SCC(=O)Nc3ccc(C(C)C)cc3)nc1=O)CCC2 yields inhibition of 7.72

For reference, reported inhibition for O=C(NCCN1CCOCC1)c1ccccc1N1C(=O)[C@@H]2Cc3c([nH]c4ccccc34)C(c3cccc(Cl)c3)N2C1=O (stereo partly specified) stands at 9.91

CCCc1nc2c3ccccc3ccn2c1Cc1ccccc1C(F)(F)F has a reported inhibition of 0.78

Form: compound = CCN(CC)S(=O)(=O)c1ccc(OC(C)C)c(N)c1 ; inhibition = -11.4

// inhibition value for COC(=O)CCCC1=CC2=C(c3ccccc3)C(=O)C(C)(OC(=O)C3CCCC3)C(=O)C2=CN1c1ccc(OC)cc1 (stereo unspecified) : 4.39

// field: inhibition; key: Cc1cc(/C=C2/SC(=O)N(CC(=O)N3CCCC3)C2=O)ccc1N1CCOCC1 ; value = -1.78

Entry O=C(Nc1ccc2c(c1)OCCO2)C(C1CC1)N1CCC(Cc2ccccc2)CC1 (stereo unspecified) — recorded inhibition = 34.6

In plain terms, O=S1(=O)CC(N2CCN(c3ccccn3)CC2)CN1Cc1ccc(F)cc1 (stereo unspecified) has a documented inhibition of -1.35

inhibition reading for Cc1ccccc1NC(=O)Cc1nc(COC(=O)CNC(=O)c2ccc(Cl)cc2Cl)cs1 : -13

get_value(item= CC(=O)Nc1ccc(OC(=O)COc2ccc(Br)cc2)cc1 , readout=inhibition) returns 1.05

Per the records, this compound ( CCCCC(=O)NNC(=S)NC(=O)C(c1ccccc1)c1ccccc1 ) has inhibition equal to 68.7

----------
assay-system: Muscarinic acetylcholine receptor M1 (Homo sapiens) (UniProt P11229)
method-summary: CHRM1 blockers of acetylcholine calcium response – CHO-K1 cells, Fluo-8 calcium fluorescence, 1536-well, primary screen (AID 588852);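 further: peak over basal fluorescence ratio during 140 s after agonist addition; 0% = ACh EC80 plus DMSO and 100% = DMSO alone without agonist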
condition-parameters: CHO-K1 hM1, Fluo-8 calcium fluorescence, ACh EC80 antagonist; at 3 µM
In all, about 360,000 compounds went through this assay and about 4,600 (1.3%) were called active.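 How the source made its calls: active means percent inhibition above its own plate's cutoff, namely the mean of that plate's compound wells plus 3 SD; inactive means the rest.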 This excerpt belongs to a sample that is enriched for actives.
Give one outcome, nothing more. List: class 1 for active, class 0 for inactive

Query: Hi, do you know how CC(NC(=O)c1ccccc1SCC(=O)N1CCCC1)c1ccccc1 (configuration not stated) came out in this test?
Reply: class 0

Query: Field: outcome | Entry: COc1ccc(S(=O)(=O)NC(C)C(=O)N2CCCCCC2)cc1 (configuration not stated)
Reply: class 0

Query: Status in this test for COC(=O)c1ccc2c(c1)S(=O)(=O)NC(=NCCCN1CCOCC1)S2 ?
Reply: class 0

Query: Check the results log: what was the call for CCN1C(=O)C(C(=O)NC(C)c2ccccc2)C2CC1(C)Oc1ccccc12 (configuration not stated) ?
Reply: class 0

Query: Assay outcome for N#C/C(=C\c1ccc(N2CCOCC2)o1)C(=O)N1CCOCC1 : what was it?
Reply: class 0
